- Test system: LXRa:RXRa (NR concentration 270 nM, RXRa partner concentration 90 nM)
- PROTOCOL DETAILS: PBM binding z-score (relative to random genomic background probes); higher = stronger binding; sequences stand for … in GC…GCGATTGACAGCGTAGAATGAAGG
ATTRIBUTE MEASURED: PBM binding z-score
API note: the answer field is a bare number with no unit suffix.

// returns reported PBM binding z-score for input GCTAGTTGTTCAGTAAAAGGTCACACACCGGTCG
4.29

Would you kindly repeat that for CAAACTAGCTCAAGAGGTCAAAGTCCGCTTCCCG ?
5.44

Would you kindly repeat that for ATATGTATGTTAAGGGTCATTCAGGTTGGTTCGC ?
4.15
